target desc: human TMEM16A (TMEM16Aabc variant) (Homo sapiens, UniProt Q5XXA6, DEL476-501)
Sequence (Q5XXA6 with tags, fused parts or gaps isoform Q5XXA6-5 DEL539-564): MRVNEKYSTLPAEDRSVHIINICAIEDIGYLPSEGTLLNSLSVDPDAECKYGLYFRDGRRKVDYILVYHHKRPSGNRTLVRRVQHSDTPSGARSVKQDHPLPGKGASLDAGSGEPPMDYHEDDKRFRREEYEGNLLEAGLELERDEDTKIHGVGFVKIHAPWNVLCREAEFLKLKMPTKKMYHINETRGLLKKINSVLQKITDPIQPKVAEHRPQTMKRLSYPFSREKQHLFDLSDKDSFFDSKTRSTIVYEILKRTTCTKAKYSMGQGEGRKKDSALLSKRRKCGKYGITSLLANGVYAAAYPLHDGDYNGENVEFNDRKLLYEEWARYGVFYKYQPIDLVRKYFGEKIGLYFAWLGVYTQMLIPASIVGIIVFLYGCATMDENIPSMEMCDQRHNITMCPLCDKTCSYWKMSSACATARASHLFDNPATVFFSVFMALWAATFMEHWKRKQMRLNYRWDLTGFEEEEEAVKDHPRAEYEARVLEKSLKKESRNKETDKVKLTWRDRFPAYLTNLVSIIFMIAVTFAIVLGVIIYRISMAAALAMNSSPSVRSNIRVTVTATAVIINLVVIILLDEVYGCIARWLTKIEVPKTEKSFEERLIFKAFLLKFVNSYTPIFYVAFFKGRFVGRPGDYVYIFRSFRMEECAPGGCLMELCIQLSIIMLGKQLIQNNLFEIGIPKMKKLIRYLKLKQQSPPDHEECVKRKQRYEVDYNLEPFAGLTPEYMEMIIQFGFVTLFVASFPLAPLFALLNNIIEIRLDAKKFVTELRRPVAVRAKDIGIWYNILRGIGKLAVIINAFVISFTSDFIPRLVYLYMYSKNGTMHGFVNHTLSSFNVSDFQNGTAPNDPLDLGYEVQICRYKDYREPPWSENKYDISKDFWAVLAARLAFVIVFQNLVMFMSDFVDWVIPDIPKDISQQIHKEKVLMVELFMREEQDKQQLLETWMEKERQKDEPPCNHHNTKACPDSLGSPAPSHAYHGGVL
assay text: Automated whole-cell patch clamp (Qpatch) TMEM16A potentiator assay in recombinant cells
Format: cell-based
run parameters: 3.33 μM solution of test compound; percentage increase of baseline TMEM16A current; FRT cells stably expressing human TMEM16A; peak current at +70 mV; intracellular calcium at EC20
recorded endpoint: % Potentiation @ 3.33 μM Avg (%)
Value expressed in %; do not type the unit.

Before answering, review these 2 worked examples.
>>> result("O=C(NCC1CCCCCC1)c1ccc2[nH]c(Cc3c(O)cccc3F)nc2c1")
57
>>> result("O=C(CC1C2CC3CC(C2)CC1C3)Nc1ccc2[nH]c(Cc3ccc(O)cc3)nc2c1 (stereo not shown)")
165.9

Here is the next item to consider.
query: Which % Potentiation @ 3.33 μM Avg value belongs to O=C(CC12CC3CC(CC(C3)C1)C2)Nc1ccc2[nH]c(Cc3cccnc3Cl)nc2c1 ?
result: 187.3

---

Catalogue of molecules with associated % Potentiation @ 3.33 μM Avg
target desc: human TMEM16A (TMEM16Aabc variant) (Homo sapiens, UniProt Q5XXA6, DEL476-501)
assay text: Automated whole-cell patch clamp (Qpatch) TMEM16A potentiator assay in recombinant cells
Type: cell-based
run parameters: 3.33 μM solution of test compound; percentage increase of baseline TMEM16A current; FRT cells stably expressing human TMEM16A; peak current at +70 mV; intracellular calcium at EC20
Number only, in %; omit the unit.

Please review the entries below; each comes with its answer.
>>> result("CC(C)(CNC(=O)OC(C)(C)C)CNC(=O)c1ccc2[nH]c(Cc3ccccc3)nc2c1")
181.6
>>> result("O=C(NCC1CCCCCC1)c1ccc2[nH]c(Cc3ccccc3O)nc2c1")
104
>>> result("O=C(CC1C2CC3CC(C2)CC1C3)Nc1ccc2[nH]c(OC3CCOC3)nc2c1 (centres unmarked)")
87.4
>>> result("CC(C)(C)c1cc(F)c(Cc2nc3cc(C(=O)NCC4(C(F)(F)F)CC4)ccc3[nH]2)cc1O")
275
>>> result("O=C(CC1C2CC3CC(C2)CC1C3)Nc1ccc2[nH]c(Cc3cc(Cl)ccc3O)nc2c1 (centres unmarked)")
204.2

query: Item under review: CC(C)(CO)c1cc(F)c(CNC(=O)c2ccc3[nH]c(C4(C(F)(F)F)CC4)nc3c2)cc1O . Reported % Potentiation @ 3.33 μM Avg?
result: 66

query: Which value of % Potentiation @ 3.33 μM Avg has been reported for O=C(CC1C2CC3CC(C2)CC1C3)Nc1ccc2[nH]c(Cc3ccccc3)nc2c1 (centres unmarked) in the records?
result: 183.6

query: Record request: % Potentiation @ 3.33 μM Avg value, item O=C(NCCC(F)(F)F)c1ccc2[nH]c(Cc3ccccc3)nc2c1
result: 69

---

target desc: human TMEM16A (TMEM16Aabc variant) (Homo sapiens, UniProt Q5XXA6, DEL476-501)
assay text: Automated whole-cell patch clamp (Qpatch) TMEM16A potentiator assay in recombinant cells
run parameters: calculated from cumulative concentration response curve; FRT cells stably expressing human TMEM16A; whole-cell patch clamp; intracellular calcium at EC20
recorded endpoint: pEC50
Lab note — pEC50 values are minus log10 of concentrations in M.

>>> result("Cc1noc(C)c1-c1cccc(Cc2nc3ccc(NC(=O)CC45CC6CC(CC(C6)C4)C5)cc3[nH]2)c1")
5.80

query: Recorded pEC50 of COc1ccccc1Cc1nc2cc(NC(=O)CC3C4CC5CC(C4)CC3C5)ccc2[nH]1 (stereo not shown) , please.
result: 6.58

query: Look at this molecule and give its reported pEC50. CC(C)(CO)c1cc(F)cc(Cc2nc3cc(C(=O)NCC4(C(F)(F)F)CC4)ccc3[nH]2)c1O
result: 6.64

query: # pEC50 lookup, item O=C(NCC1CCCCCC1)c1ccc2cn(Cc3ccccc3O)nc2c1
result: 6.70

---

target desc: human TMEM16A (TMEM16Aabc variant) (Homo sapiens, UniProt Q5XXA6, DEL476-501)
assay text: Automated whole-cell patch clamp (Qpatch) TMEM16A potentiator assay in recombinant cells
run parameters: calculated from cumulative concentration response curve; FRT cells stably expressing human TMEM16A; whole-cell patch clamp; intracellular calcium at EC20
Protocol: Automated Whole-Cell Patch Clamp Assay to Detect TMEM16A Activity in Recombinant Cells Cell Culture and Preparation […] Compound activity was quantified by measuring the increase in current upon compound addition and expressing this as a percentage increase of baseline TMEM16A current level. […] Peak TMEM16A current at +70 mV was plotted as a function of time over the assay period. Baseline current (IBL) was measured after a period of stabilisation. […]
Overview of recorded EC50 for various molecules
Dear colleague, please return just the value in nM, with no unit written.

>>> result("O=C(CC1C2CC3CC(C2)CC1C3)Nc1ccc2[nH]c(Cc3ccccc3)nc2c1 (centres unmarked) [Example 2]")
268
>>> result("Nc1c2ccc(NC(=O)CC34CC5CC(CC(C5)C3)C4)cc2nn1Cc1ccccc1O [Example 11]")
98
>>> result("CC(C)(O)c1cc(F)c(CC(=O)Nc2ccc3[nH]c(C4(C(F)(F)F)CC4)nc3c2)cc1O [Example 22]")
168
>>> result("CC(C)(C)OC(=O)NCc1nc2cc(NC(=O)CC3C4CC5CC(C4)CC3C5)ccc2[nH]1 (centres unmarked) [Example 8]")
282
>>> result("O=C(NCC1CCCCCC1)c1ccn2cc(Cc3ccccc3)nc2c1 [Example 15]")
1060

query: Kindly state the measured EC50 obtained for CC(C)(C)c1nc2cc(NC(=O)Cc3cc(Cl)ccc3O)ccc2[nH]1 [Example 18] with human TMEM16A (TMEM16Aabc variant) (Homo sapiens, UniProt Q5XXA6, DEL476-501).
result: 156

query: Notebook: pull reported EC50 for human TMEM16A (TMEM16Aabc variant) (Homo sapiens, UniProt Q5XXA6, DEL476-501), entry CC(C)(CO)c1cc(F)c(Cc2nc3cc(C(=O)NCC4(C(F)(F)F)CC4)ccc3[nH]2)cc1O [Example 29]
result: 496

query: Report EC50 for CC(C)(C)c1cc(F)c(Cc2nc3cc(C(=O)NC4(C(F)(F)F)CC4)ccc3[nH]2)cc1O [Example 21] tested on human TMEM16A (TMEM16Aabc variant) (Homo sapiens, UniProt Q5XXA6, DEL476-501).
result: 99

---

target desc: human TMEM16A (TMEM16Aabc variant) (Homo sapiens, UniProt Q5XXA6, DEL476-501)
Sequence (Q5XXA6 with tags, fused parts or gaps isoform Q5XXA6-5 DEL539-564): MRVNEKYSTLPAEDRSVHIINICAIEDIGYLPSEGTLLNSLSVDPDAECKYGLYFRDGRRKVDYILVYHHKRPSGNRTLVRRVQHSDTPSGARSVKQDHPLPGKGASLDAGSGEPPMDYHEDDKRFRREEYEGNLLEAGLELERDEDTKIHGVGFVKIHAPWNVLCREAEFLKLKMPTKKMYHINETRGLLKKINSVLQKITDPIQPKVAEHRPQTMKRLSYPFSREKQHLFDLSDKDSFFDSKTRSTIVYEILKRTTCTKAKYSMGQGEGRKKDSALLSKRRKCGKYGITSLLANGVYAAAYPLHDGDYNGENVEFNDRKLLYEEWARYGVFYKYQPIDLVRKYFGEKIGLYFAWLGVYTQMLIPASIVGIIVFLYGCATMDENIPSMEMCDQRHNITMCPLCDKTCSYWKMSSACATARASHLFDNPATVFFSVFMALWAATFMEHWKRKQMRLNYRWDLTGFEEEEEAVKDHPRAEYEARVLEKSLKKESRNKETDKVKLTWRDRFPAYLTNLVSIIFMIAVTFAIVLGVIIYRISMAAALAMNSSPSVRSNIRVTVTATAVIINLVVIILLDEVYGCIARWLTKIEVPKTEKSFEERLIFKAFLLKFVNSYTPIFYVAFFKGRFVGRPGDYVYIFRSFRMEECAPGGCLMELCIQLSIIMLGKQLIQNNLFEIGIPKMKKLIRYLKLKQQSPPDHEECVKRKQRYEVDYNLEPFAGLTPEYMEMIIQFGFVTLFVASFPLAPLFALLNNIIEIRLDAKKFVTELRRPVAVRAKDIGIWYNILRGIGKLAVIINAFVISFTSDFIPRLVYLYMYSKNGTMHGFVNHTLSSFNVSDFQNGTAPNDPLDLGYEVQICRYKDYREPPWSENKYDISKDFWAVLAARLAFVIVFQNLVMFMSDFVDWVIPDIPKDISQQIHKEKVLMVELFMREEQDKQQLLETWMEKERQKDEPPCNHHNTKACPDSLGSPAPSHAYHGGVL
assay text: Automated whole-cell patch clamp (Qpatch) TMEM16A potentiator assay in recombinant cells
run parameters: calculated from cumulative concentration response curve; FRT cells stably expressing human TMEM16A; whole-cell patch clamp; intracellular calcium at EC20
recorded endpoint: EC50 (nM)
Field: numeric (nM). Do not append units.

Previously resolved entries follow.
>>> result("O=C(CC12CC3CC(CC(C3)C1)C2)Nc1ccc2[nH]c(Cc3cccnc3Cl)nc2c1")
732
>>> result("CC(C)(CNC(=O)OC(C)(C)C)CNC(=O)c1ccc2[nH]c(Cc3ccccc3)nc2c1")
936
>>> result("Cc1c2ccc(NC(=O)CC34CC5CC(CC(C5)C3)C4)cc2nn1Cc1ccccc1")
918

Could you now look at the following compound, please?
query: Record request: EC50 value, item O=C(CC1C2CC3CC(C2)CC1C3)Nc1ccc2[nH]c(CCc3ccccc3)nc2c1 (stereo not shown)
result: 808
